- TEST DETAILS: Permeability from apical to basolateral side in MDCK cells expressing human MDR1 assessed as compound recovery
- Assay type: ADME, cell-based, Canis lupus familiaris
- CONDITION NOTES: dog, read-out: permeability
MEASURED ATTRIBUTE: recovery (%)

CN1CC(c2c[nH]c3cc(-n4ccc(OCc5ccccc5)cc4=O)ccc23)C1 | 72

---

- TEST DETAILS: Drug uptake in P-gp transporter knockout FVB mouse brain at 15 mg/kg, iv after 1 hr
- Type: ADME, organism-based
- Parameters: dose 15 mg/kg, route intravenous
- CONDITION NOTES: read-out: Drug uptake
MEASURED ATTRIBUTE: concentration at 1 h (ng/g)

CN1CC(c2c[nH]c3cc(-n4ccc(OCc5ccccc5)cc4=O)ccc23)C1 | 878
